# TEST SYSTEM: T1, human TGFβ1 (human, UniProt P01137 279-390)
# T1 construct: also called TGFβ1 homodimer
# T1 sequence (P01137 279-390 limits assumed): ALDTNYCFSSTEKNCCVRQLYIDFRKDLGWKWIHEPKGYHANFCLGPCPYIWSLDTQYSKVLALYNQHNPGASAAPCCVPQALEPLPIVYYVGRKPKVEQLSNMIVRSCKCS
# PROCEDURE SUMMARY: Biacore off-rate vs wt GC1008, 50 nM
MEASURED ENDPOINT: kd var/kd wt
Enter a number only.

N32E (antibody, V domains shown, GC1008 IgG4 variant) VH: QVQLVQSGAEVKKPGSSVKVSCKASGYTFSSEVISWVRQAPGQGLEWMGGVIPIVDIANYAQRFKGRVTITADESTSTTYMELSSLRSEDTAVYYCASTLGLVLDAMDYWGQGTLVTVSS VL: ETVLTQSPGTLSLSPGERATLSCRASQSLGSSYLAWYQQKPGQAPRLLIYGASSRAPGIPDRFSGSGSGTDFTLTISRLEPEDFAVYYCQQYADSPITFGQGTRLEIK ... 0.6

Enquiry: Value lookup for kd var/kd wt; key = Y27M (antibody, V domains shown, GC1008 IgG4 variant) VH: QVQLVQSGAEVKKPGSSVKVSCKASGMTFSSNVISWVRQAPGQGLEWMGGVIPIVDIANYAQRFKGRVTITADESTSTTYMELSSLRSEDTAVYYCASTLGLVLDAMDYWGQGTLVTVSS VL: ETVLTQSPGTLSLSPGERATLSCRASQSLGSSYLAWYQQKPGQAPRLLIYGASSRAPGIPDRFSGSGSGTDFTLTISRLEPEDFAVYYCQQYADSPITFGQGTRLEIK
Return: 1.3
